Biological target: human RXFP1 (Homo sapiens, UniProt Q9HBX9)
Sequence (Q9HBX9 whole entry): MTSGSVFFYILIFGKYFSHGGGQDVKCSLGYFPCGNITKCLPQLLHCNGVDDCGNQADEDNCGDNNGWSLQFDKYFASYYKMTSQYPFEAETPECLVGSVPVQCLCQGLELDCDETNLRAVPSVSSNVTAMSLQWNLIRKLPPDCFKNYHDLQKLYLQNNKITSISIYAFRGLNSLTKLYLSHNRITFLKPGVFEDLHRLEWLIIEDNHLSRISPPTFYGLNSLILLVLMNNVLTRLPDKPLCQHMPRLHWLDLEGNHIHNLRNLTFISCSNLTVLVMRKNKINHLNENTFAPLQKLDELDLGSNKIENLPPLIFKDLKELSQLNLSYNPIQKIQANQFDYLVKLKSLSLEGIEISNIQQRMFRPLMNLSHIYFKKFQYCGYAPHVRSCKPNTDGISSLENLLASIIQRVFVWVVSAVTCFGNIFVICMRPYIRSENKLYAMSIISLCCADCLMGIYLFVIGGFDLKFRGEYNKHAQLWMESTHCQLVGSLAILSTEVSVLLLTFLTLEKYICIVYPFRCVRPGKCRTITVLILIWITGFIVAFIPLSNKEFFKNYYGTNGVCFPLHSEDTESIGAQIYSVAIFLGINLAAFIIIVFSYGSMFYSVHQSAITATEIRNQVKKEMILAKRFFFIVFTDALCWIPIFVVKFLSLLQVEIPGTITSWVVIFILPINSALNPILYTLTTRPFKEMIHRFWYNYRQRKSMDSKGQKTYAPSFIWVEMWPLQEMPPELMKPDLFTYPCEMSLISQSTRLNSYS
Assay: hRXFP1 HEK293 cAMP assay (HTRF)
Conditions: HEK293 cells stably expressing human RXFP1; 30 min at rt; intracellular cAMP by HTRF
Checkbox rule: EC50 lower than 0.5 µM = true (1); EC50 not lower than 0.5 µM = false (0).

Example cases with answers are listed next.
[[record]]
compound = "COc1ccc(-c2cccc(NS(C)(=O)=O)c2)cc1C(=O)Nc1c(C(=O)Nc2ccc(F)c(C(F)(F)F)c2)sc2cc(C(F)(F)F)ccc12 [Example 123]"
experimental_system = "human RXFP1 (Homo sapiens, UniProt Q9HBX9)"
class_assignment = "true (1)"

[[record]]
compound = "COc1ccc(C2CCCN(C(=O)CN)C2)cc1C(=O)Nc1c(C(=O)Nc2ccc(F)c(C(F)(F)F)c2)sc2cc(C(F)(F)F)ccc12 (centres unmarked) [Example 96]"
experimental_system = "human RXFP1 (Homo sapiens, UniProt Q9HBX9)"
class_assignment = "true (1)"

[[record]]
compound = "COc1ccc(-c2cc(C(C)(C)O)on2)cc1C(=O)Nc1c(C(=O)Nc2ccc(F)c(C(F)(F)F)c2)sc2cc(C(F)(F)F)ccc12 [Example 276]"
experimental_system = "human RXFP1 (Homo sapiens, UniProt Q9HBX9)"
class_assignment = "true (1)"

[[record]]
compound = "COc1cc(F)c(C(=O)N2CC[C@@H](O)C2)cc1C(=O)Nc1c(C(=O)Nc2ccc(F)c(C(F)(F)F)c2)sc2cc(C(F)(F)F)ccc12 [Example 183]"
experimental_system = "human RXFP1 (Homo sapiens, UniProt Q9HBX9)"
class_assignment = "false (0)"

[[record]]
compound = "COc1ccc(C2CCCN(CCO)C2)cc1C(=O)Nc1c(C(=O)Nc2ccc(F)c(C(F)(F)F)c2)sc2cc(C(F)(F)F)ccc12 (centres unmarked) [Example 85]"
experimental_system = "human RXFP1 (Homo sapiens, UniProt Q9HBX9)"
class_assignment = "false (0)"

[[record]]
compound = "COc1ccc(C2CCC(NCC(=O)O)CC2)cc1C(=O)Nc1c(C(=O)Nc2ccc(F)c(C(F)(F)F)c2)sc2cc(C(F)(F)F)ccc12 (single isomer, unassigned) [Example 211]"
experimental_system = "human RXFP1 (Homo sapiens, UniProt Q9HBX9)"
class_assignment = "false (0)"


hey, is EC50 for COc1ccc(N2CCCC(C(=O)NS(C)(=O)=O)C2)cc1C(=O)Nc1c(C(=O)Nc2ccc(F)c(C(F)(F)F)c2)sc2cc(C(F)(F)F)ccc12 (single isomer, unassigned) [Example 6] lower than 0.5 µM or not?
true (1)

I wonder whether COc1cc(F)c(C#CCO)cc1C(=O)Nc1c(C(=O)Nc2ccc(F)c(C(F)(F)F)c2)sc2cc(C(F)(F)F)ccc12 [Example 110] has EC50 below 0.5 µM. Can you tell?
true (1)

Could you please tell me whether EC50 recorded for COc1ccc(-c2cc(CN)ccc2F)cc1C(=O)Nc1c(C(=O)Nc2ccc(F)c(C(F)(F)F)c2)sc2cc(C(F)(F)F)ccc12 [Example 16] is less than 0.5 µM?
false (0)

* * *

Target: human RXFP1 (Homo sapiens)
Test: hRXFP1 HEK293 cAMP assay (HTRF)
Settings: HEK293 cells stably expressing human RXFP1; 30 min at rt; intracellular cAMP by HTRF
measure_name: EC50

Use the examples below as a reference point.
[[record]]
compound = "CNC(=O)CN1CCCC(c2ccc(OC)c(C(=O)Nc3c(C(=O)Nc4ccc(F)c(C(F)(F)F)c4)sc4cc(C(F)(F)F)ccc34)c2)C1 (stereo not drawn) [Example 99]"
experimental_system = "human RXFP1 (Homo sapiens)"
observed_value = "1370 nM"

[[record]]
compound = "COc1ccc(C2CCC(C)(O)CC2)cc1C(=O)Nc1c(C(=O)Nc2ccc(F)c(C(F)(F)F)c2)sc2cc(C(F)(F)F)ccc12 (single isomer, unassigned) [Example 37]"
experimental_system = "human RXFP1 (Homo sapiens)"
observed_value = "158 nM"

[[record]]
compound = "COc1ccc(C2=NOC3CNCC23)cc1C(=O)Nc1c(C(=O)Nc2ccc(F)c(C(F)(F)F)c2)sc2cc(C(F)(F)F)ccc12 (stereo not drawn) [Example 247]"
experimental_system = "human RXFP1 (Homo sapiens)"
observed_value = "531 nM"

[[record]]
compound = "COc1ccc(S(=O)(=O)N2CCC[C@@H](NC(=O)CCO)C2)cc1C(=O)Nc1c(C(=O)Nc2ccc(F)c(C(F)(F)F)c2)sc2cc(C(F)(F)F)ccc12 [Example 189]"
experimental_system = "human RXFP1 (Homo sapiens)"
observed_value = "491 nM"

[[record]]
compound = "COc1ccc(-c2noc(C(C)(C)CO)n2)cc1C(=O)Nc1c(C(=O)Nc2ccc(F)c(C(F)(F)F)c2)sc2cc(C(F)(F)F)ccc12 [Example 274]"
experimental_system = "human RXFP1 (Homo sapiens)"
observed_value = "278 nM"


The compound COc1ncc(C(=O)OC(C)(C)C)cc1C(=O)Nc1c(C(=O)Nc2ccc(F)c(C(F)(F)F)c2)sc2cc(C(F)(F)F)ccc12 [Example 223] showed EC50 equal to 1250 nM
